Tested on: NCI-H322M lung
Assay: NCI-60 one-dose screen, 48 h (100 = growth as untreated, 0 = no growth, -100 = all killed)
Conditions: 10 µM
The panel holds about 83,000 compounds, 20% with a hit somewhere; the sample as a whole holds those more often.
Listing of recorded growth by entry.
Numbers only; they are read as %.

State its growth on NCI-H322M lung: COc1ccc(-c2cc(/C=C3\C(=O)Nc4cc(Cl)ccc43)[nH]n2)cc1OC 89.8

Please provide the recorded growth for COc1cc(/C=C/C(=O)c2cc(-c3ccccc3)ccc2O)cc(OC)c1OC , tested on NCI-H322M lung. 86.1

Form entry - test system: NCI-H322M lung; read-out: growth; compound: COc1cccc(C(=O)N(c2ccc(F)c(F)c2)C(C(=O)NC(C)(C)C)c2cc3c(C)cc(C)cc3nc2Cl)c1 (stereo not given) 84.7

What reported growth corresponds to C#Cc1ccc(-n2c(/C=C/c3cc(OC)c(OC)c(OC)c3)nc3ncccc3c2=O)cc1 on NCI-H322M lung? 68.3

Now consider the entry below.
API: value(readout= growth, system= NCI-H322M lung, query= CN(C1c2ccccc2Oc2ccccc21)S(=O)(=O)c1cc(Cl)ccc1Cl ) 78.4

* * *

Tested on: UACC-257 melanoma
Test: NCI-60 one-dose screen, 48 h (100 = growth as untreated, 0 = no growth, -100 = all killed)
Conditions: 10 µM
This is part of a sample that, as a whole, favours compounds with a hit. Of some 83,000 tested, about 20% had one in any assay.
reportedEndpoint: growth (%)
The reply should be a number in %, with the unit left off.

Provide value of growth for this record tested with UACC-257 melanoma: COc1ccc(Cn2cc3c(c2-c2cc(OC)c(OC)c(OC)c2)CCc2cnoc2-3)cc1N 65.9

Continuing:
For the record COc1ccc(-c2nnc(SC/C(=N\O)c3ccccc3)o2)cc1 , what value of growth is listed for UACC-257 melanoma? 121

# value lookup — system UACC-257 melanoma, readout growth, item CC(=O)c1ccc(NCn2nc(-c3ccc(Cl)cc3)oc2=S)cc1 93

Short answer please: growth, UACC-257 melanoma, entry CCCCOCC(=O)NC(NP(=O)(N(C)C)N(C)C)C(Cl)(Cl)Cl (stereo unspecified) 108

Identify the measured growth of CCCCCCCCCCCCCCCC(=O)N1CCN(C)CC1 for UACC-257 melanoma. 91.8

Kindly state the measured growth obtained for CN1/C(=C\C(I)C(I)C2=[N+](C)c3ccccc3C2(C)C)C(C)(C)c2ccccc21 (stereo unspecified) with UACC-257 melanoma. -11.8

Lookup: growth / UACC-257 melanoma / CCC(CCNc1cc(OC)cc2cccnc12)CN1C(=O)c2ccccc2C1=O (stereo unspecified) 119

* * *

Tested on: HS 578T breast
Assay: NCI-60 one-dose screen, 48 h (100 = growth as untreated, 0 = no growth, -100 = all killed)
Conditions: 10 µM
This is part of a sample that, as a whole, favours compounds with a hit. Of some 83,000 tested, about 20% had one in any assay.
reportedEndpoint: growth (%)
Give your result in % as a bare value.

# query: growth of entry CC(=O)O[C@H]1CC[C@@]2(C)[C@@H](CC[C@@H]3[C@@H]2CC[C@]2(C)C=C(C=O)C[C@@H]32)C1 105

Consider the compound Nc1c(CNCc2nnn(Cc3ccccc3)c2N)nnn1Cc1ccccc1 and give its measured growth. 99
